Cited source for all entries: patent US9056863B2

target: human PDE10A (Homo sapiens (Human))
Sequence (Q9Y233 716-1055): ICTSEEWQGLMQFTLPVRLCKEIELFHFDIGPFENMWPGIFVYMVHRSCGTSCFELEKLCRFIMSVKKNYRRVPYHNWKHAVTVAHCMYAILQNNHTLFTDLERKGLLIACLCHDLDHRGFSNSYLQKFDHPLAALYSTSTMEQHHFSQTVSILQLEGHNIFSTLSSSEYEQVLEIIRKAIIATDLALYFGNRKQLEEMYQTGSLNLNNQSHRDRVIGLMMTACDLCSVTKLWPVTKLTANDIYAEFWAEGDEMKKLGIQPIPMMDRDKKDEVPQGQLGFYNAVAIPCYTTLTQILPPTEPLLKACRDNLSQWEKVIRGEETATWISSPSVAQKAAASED
QUANTITY_NAME: IC50 (µM)
Number only, in µM; omit the unit.

### Prompt Look up and report measured IC50 for this entry: "Cc1nc2ccncc2n2c(-c3ccccc3Cl)nnc12"
### Response 1.76
